Overview of recorded pIC50 for various sequences
# Assay target: HLA-A*0201 (Homo sapiens, UniProt P04439, D140Y/D185E/D98H/E176V/E277Q/G131W/G231S/I119V/I121R/I166T/I218V/L300P/L318F/N151K/N90K/P208A/P217A/Q86G/Q94H/R138H/R169H/T345S)
# Assay summary: biochemical
# Format: binding
Where no end group is shown, it is not given here.
# pIC50: negative log10 of molar concentration; output just the value

ILDAHSLYL [IL9] ... 8.89

# evaluate next
// query Given the sequence VLSEWLPVT [VT9] , what is its reported pIC50?
// result 7.82
